TARGET: Recombinant human his-tagged IGF 1R extracellular domain protein (human) (UniProt P08069)
PROCEDURE_DETAILS: SPR, captured antibody, pH 7.4
Recorded pKd values for a group of binders are listed next.
In textbook form, pKd equals minus log to base ten of the concentration in mol/L.

A selection of reference data follows.
>>> result_number("VRDN-03098 (antibody, V domains shown) VH: QVQLVESGGGVVQPGRSLRLSCAASGFTFSSYSMHWVRQAPGKGLEWVAIIWFDGSSKYYADSVKGRFTISRDNSKNTLYLQMNSLRAEDTAVYYCARELGRRYFDIWGRGTLVTVSS VL: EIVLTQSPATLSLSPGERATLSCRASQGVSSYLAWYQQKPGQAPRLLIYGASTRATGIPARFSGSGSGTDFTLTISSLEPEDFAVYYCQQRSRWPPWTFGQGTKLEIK")
8.69
>>> result_number("VRDN-03124 (antibody, V domains shown) VH: EVQLVESGGGVVQPGRSLRLSCAASGFTFDDYTMHWVRQAPGKGLEWVAIIWFDGSSKYYADSVKGRFTISRDNSKNTLYLQMNSLRAEDTAVYYCARELGRRYFDIWGQGTLVTVSS VL: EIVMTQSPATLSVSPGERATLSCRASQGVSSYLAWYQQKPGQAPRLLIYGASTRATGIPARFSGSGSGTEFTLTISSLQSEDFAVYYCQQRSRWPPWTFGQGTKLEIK")
8.74

Please examine the following record next.
Query: Please indicate pKd recorded for VRDN-03136 (antibody, V domains shown) VH: EVQLVESGGGVVQPGRSLRLSCAASGFTFDDYTMHWVRQAPGKGLEWVAIIWFDGSSKYYADSVKGRFTISRDNSKNTLYLQMNSLRAEDTAVYYCARELGRRYFDIWGQGTLVTVSS VL: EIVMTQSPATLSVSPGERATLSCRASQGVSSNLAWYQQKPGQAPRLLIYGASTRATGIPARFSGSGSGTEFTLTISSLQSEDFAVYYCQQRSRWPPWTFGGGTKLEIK
Response: 8.55
